# tgt: T1, SUMO-L-Myc fusion protein (recombinant bHLHZip domain of L-Myc fused with a small ubiquitin-like modifier … (UniProt P12524 281-364))
# T1 construct: not shown: small ubiquitin-like modifier (SUMO) protein
# T1 sequence (looked up): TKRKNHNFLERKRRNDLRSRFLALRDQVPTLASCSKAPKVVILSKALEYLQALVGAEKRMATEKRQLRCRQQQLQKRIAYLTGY
# assay_procedure: phage ELISA on target antigen, signal as % of parental WT
measurement_label: % antigen binding activity retained (relative to parental)

[[record]]
binder = "LMYC mut9 (designed binder, Net charge 11; Tested on phage) DLGKKLLEAARAGQNDKVRILMANGAKVNAMDQYGFTPLHLAAWYGHRKIVKVLLKHGANVKAKDVHGFTPLHLAAWTGHLEIVKVLLKNGAKVNARDNEGSTPLHLAALAGHLEIVKVLLKNGAKVNAQDKFGKTAFDISIENGNEKLAKILQKL"
meas_value = "> 50%"

[[record]]
binder = "LMYC mut8 (designed binder, Net charge 11; Tested on phage) DLGKKLLEAARAGQNDKVRILMANGAKVNAMDQYGFTPLHLAAWYGHRKIVKVLLKHGANVKAKDVHGFTPLHLAAWTGHLEIVKVLLKNGANVKARDNEGSTPLHLAALAGHLEIVKVLLKNGAKVNAQDKFGKTAFDISIENGNEKLAKILQKL"
meas_value = "> 50%"

[[record]]
binder = "LMYC mut7 (designed binder, Tested on phage) DLGKKLLEAARAGQNDKVRILMANGANVKAMDQYGFTPLHLAAWYGHRKIVKVLLKHGANVKAKDVHGFTPLHLAAWTGHLEIVEVLLKNGADVNARDNEGSTPLHLAALAGHRKIVKVLLKNGAKVNAQDKFGKTAFDISIENGNEKLAKILQKL"
meas_value = "> 50%"

[[record]]
binder = "LMYC mut11 (designed binder, Net charge 12; Tested on phage) DLGKKLLEAARAGQNDKVRILMANGADVNAMDQYGFTPLHLAAWYGHRKIVKVLLKHGANVKAKDVHGFTPLHLAAWTGHRKIVKVLLKNGANVKARDNEGSTPLHLAALAGHLEIVKVLLKNGAKVNAQDKFGKTAFDISIENGNEKLAKILQKL"
meas_value = "> 50%"

